Origin of the recorded values: PubChem BioAssay (NCI)

System: EKVX NSCLC
Test: NCI-60 one-dose screen, 48 h
Conditions: 10 µM
Compounds without any hit were thinned out: in the full panel of roughly 83,000, 20% have a hit. The source made the active and inactive calls. The calls were made as follows: active = growth percent below 10; inactive = the rest.
Answer with one of the outcomes given here: active, inactive

Before answering, review these 5 worked examples.
Q. In this assay, the call recorded for O=C1C(c2ccccc2)C2C=CC(C2)N1O (stereo unspecified) was what?
A. inactive

Q. In this assay, the call recorded for CN1CCC2(CC1)NC(=O)c1c(c3ccc(Cl)c(Cl)c3n1C)C2C#N (stereo unspecified) was what?
A. inactive

Q. In this assay, the call recorded for O=C1OCC2=C1C(c1cccc(Cl)c1)c1cc3c(cc1N2CCO)OCCO3 (stereo unspecified) was what?
A. inactive

Q. In this assay, the call recorded for CCN(CC)CCC(CNc1c(C)cnc2cc(Cl)ccc12)c1ccc(Cl)cc1 (stereo unspecified) was what?
A. inactive

Q. In this assay, the call recorded for NC(=O)c1ccc(-c2cccc3c(=O)nc(N4CCOCC4)oc23)cc1 was what?
A. inactive

Further cases:
Q. In this assay, the call recorded for COc1cc(-c2cc(C(=O)N3CCN(C(=O)c4ccccc4NCc4ccco4)CC3)nc3cc(-c4ccccc4)nn23)cc(OC)c1OC was what?
A. inactive

Q. In this assay, the call recorded for CCOC(=O)c1ccc(NC(=O)Nc2ncc(Cl)cc2Cl)cc1 was what?
A. inactive

Q. In this assay, the call recorded for CN(C)C(=S)N/N=C\C=N/NC(=S)N(C)C was what?
A. inactive

Q. In this assay, the call recorded for c1ccc2c(c1)oc1c3cccnc3ccc21 was what?
A. inactive

Q. In this assay, the call recorded for CC12O[C@H](C[C@@H](OC(=O)c3ccccc3)[C@H]1O)n1c3ccccc3c3c4c(c5c6ccccc6n2c5c31)C(=O)NC4=O was what?
A. inactive

Q. In this assay, the call recorded for Oc1[nH]c2ccc(Cl)cc2c1/C=c1/ccc2c(c1)N=C(c1cccs1)N=2 was what?
A. inactive

Q. In this assay, the call recorded for O=C1ON=[N+](c2ccc(Cc3ccc([N+]4=NOC(=O)C4CN4CCOCC4)cc3)cc2)C1CN1CCOCC1 (stereo unspecified) was what?
A. inactive

Q. In this assay, the call recorded for CCN1Cc2c(/C=C/c3ccccc3)nc3ccc(OC)cc3c2N(c2cccc(Cl)c2)C1 was what?
A. inactive

Q. In this assay, the call recorded for Cc1cc2ccccc2nc1-c1ccccc1F was what?
A. inactive
